B1: PBXIP1 (parent)
chain: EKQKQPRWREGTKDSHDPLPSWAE

Variants of: B1
Experiment: protein stability index of a GFP-peptide fusion (GPS, HEK-293T) (PSI 1-6); higher = more stable;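 note: lentivirally expressed fusions sorted by FACS into six bins by GFP to DsRed ratio, PSI derived from sequencing read proportions per bin multiplied by bin number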
Conditions: c terminus: a fixed tail appended
// reported protein stability index for each item listed
Give a plain numeric answer without units written out.

// solved cases for protein stability index follow
INSERT INTO results (variantnotation, observed) VALUES
  ('R9D', 1.76),
  ('A23W', 2.76),
  ('E24S', 2.34),
  ('D14M', 1.96),
  ('R9T', 2.17);

Turning now to a further variant:
// protein stability index value for Q5G : 1.99

meta.source: the supplement of paper PMC10567573
